Recorded values, source PubChem BioAssay (NCI).

# Test system: EKVX NSCLC
# Assay Details: NCI tumour cell line growth inhibition, 48 h; in the data active means GI50 below about 0.43 µM; inactive means the rest
Outcome codes: active, inactive

Compound	Class Label
C[C@@H]1[C@H]2[C@H](C=C3[C@@H]4CC[C@H]5Cc6nc7c(nc6C[C@]5(C)[C@H]4C[C@@H](O)[C@@]32C)C[C@@H]2CC[C@H]3C4=C[C@@H]5O[C@@]6(CC[C@](C)(CO)O6)[C@@H](C)[C@@]5(O)[C@@]4(C)[C@H](O)C[C@@H]3[C@@]2(C)C7)O[C@]12CCC(C)(C)O2	active
COc1cccc2c1nc1cccc(OC)c1[n+]2[O-]	inactive
O=C(Nc1ccc(Cl)cc1F)c1cc(F)ccc1O	inactive
C=CCC(N[C@@H](CO)c1ccccc1)c1ccccn1 (some centres undefined)	inactive
Cc1cc(S(N)(=O)=O)c(S/C(=N\Nc2ccc([N+](=O)[O-])cc2)c2ccc(O)cc2)cc1Cl	inactive
FC(F)(F)c1[nH]ncc1-c1nc2c(N3CCCCC3)cc3[nH]ncc3c2c2c1CCCC2	inactive
COc1cc(/C=C2\CCCC3C2=Nc2ccccc2NC3c2cc(OC)c(OC)c(OC)c2)cc(OC)c1OC (centres undefined)	inactive
O=C(C[C@@]1(O)C(=O)Nc2c(Cl)ccc(Cl)c21)c1ccc(C2CC2)cc1	inactive
O=c1c2[nH]c3ccccc3c2nc2n1CCS2	inactive
COc1nc2c(cc1S(=O)(=O)c1ccccc1)CCc1c-2cnn1Cc1ccccc1	inactive
OC(COc1cccc2ccccc12)CN1CCN(c2ccc(Cl)cc2)CC1 (centres undefined)	inactive
COc1ccc2[nH]c(-c3ccccc3)c(C=C(C#N)C#N)c2c1	inactive
COc1cc(/C=C/C(=O)NC[C@]2(O)CCC3C4CCc5cc(O)ccc5C4CCC32C)ccc1O (some centres undefined)	inactive
CSC1=Nc2c(c(C)c(-c3ccccc3)n2CCCCl)C2=NC(=O)CN12	inactive

---

# Test system: HOP-92 NSCLC
# Assay Details: NCI tumour cell line growth inhibition, 48 h
Measured Attribute: TGI

> print(dat)
                                    compound  experimental.value
 1  O=S(=O)(O)c1cc(N=Nc2cc(S(=O)(=O)O)c3ccccc3c2O)ccc1/C=C/c1ccc(N=Nc2cc(S(=O)(=O)O)c3ccccc3c2O)cc1S(=O)(=O)O            > 463 µM
 2  C=C1CC23CCC4C(C)(C(=O)O)CCCC4(C)C2CCC1C3 (stereo not given)             94.3 µM
 3  COc1ccc2c(c1)CCC(CN1CCN(CCOC(c3ccc(F)cc3)c3ccc(F)cc3)CC1)C2O (stereo not given)             26.7 µM
 4       COc1cc2cn3c4ccc(O)cc4nc(N)c3c2cc1OC             8.06 µM
 5  Clc1ccccc1C1N2CCCCC2[C@@H]2c3[nH]c4ccccc4c3CCN12 (stereo not given in full)            > 100 µM
 6  C=CC1(c2ccccc2Cl)N/C(=C/OCC)CO1 (stereo not given)            > 100 µM
 7  Fc1c[c-]c(-c2ccccn2)c(F)c1.[CH3-].[Pt+2].c1ccc([PH+](c2ccccc2)c2ccccn2)cc1             2.68 µM
 8  CC1C(/C=C/c2ccoc2)ON2CCCC12 (stereo not given)            > 100 µM
 9         COc1cccc2c1nc1cccc(OC)c1[n+]2[O-]             9.28 µM
10  Cc1cc(S(=O)(=O)Nc2nc3ccccc3[nH]2)c(S)cc1Cl            > 100 µM
11      Nc1nc(N)c2ncn(-c3ccc(Cl)c(Cl)c3)c2n1            > 100 µM
12      Cc1ccc(P(c2ccc(C)cc2)c2ccc(C)cc2)cc1             20.8 µM
13      CC(=O)c1cccc(Nc2c3ccccc3nc3occc23)c1             62.2 µM
14  CCOC(=O)/C(=C\c1ccnc2ccccc12)P(=O)(OCC)OCC             6.93 µM
15                      Cc1cccc(Cl)c1NC(N)=S            > 100 µM
